target: DPP-IV activity from human colonic carcinoma cell extracts (Caco-2) (Homo sapiens)
Sequence (P27487 whole entry): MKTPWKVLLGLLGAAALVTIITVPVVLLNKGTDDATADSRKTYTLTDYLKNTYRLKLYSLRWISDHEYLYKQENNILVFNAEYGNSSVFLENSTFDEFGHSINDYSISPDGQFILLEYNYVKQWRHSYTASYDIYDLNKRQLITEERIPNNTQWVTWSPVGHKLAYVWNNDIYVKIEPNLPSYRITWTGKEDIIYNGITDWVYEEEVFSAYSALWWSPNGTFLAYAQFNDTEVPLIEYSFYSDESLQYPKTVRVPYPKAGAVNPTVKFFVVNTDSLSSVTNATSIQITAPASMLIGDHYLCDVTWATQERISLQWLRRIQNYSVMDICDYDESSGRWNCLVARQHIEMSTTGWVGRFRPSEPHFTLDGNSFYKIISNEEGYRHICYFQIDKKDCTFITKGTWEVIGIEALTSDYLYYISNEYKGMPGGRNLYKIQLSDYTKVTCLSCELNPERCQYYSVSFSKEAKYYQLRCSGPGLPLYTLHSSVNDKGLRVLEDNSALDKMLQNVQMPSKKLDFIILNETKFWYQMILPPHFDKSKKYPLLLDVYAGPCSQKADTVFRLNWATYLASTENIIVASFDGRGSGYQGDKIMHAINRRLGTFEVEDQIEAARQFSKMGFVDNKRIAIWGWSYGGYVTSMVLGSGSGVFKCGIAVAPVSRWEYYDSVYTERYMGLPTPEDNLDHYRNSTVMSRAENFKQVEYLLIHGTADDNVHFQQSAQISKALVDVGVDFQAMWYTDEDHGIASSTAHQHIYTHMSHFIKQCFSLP
ENDPOINT NAME: IC50 (nM)
Express your answer in nM, writing the number without its unit.

Prompt: Entry N[C@@H](CC(=O)NC1Cc2ccccc2NC1=O)Cc1ccccc1F (stereo partly shown) [Example 1] : reported IC50 = ?
Completion: 580

Data provenance: patent US20080009512A1
